Values were extracted from patent US8017791B2.

# target-entity: DAT (Rattus norvegicus, UniProt P23977)
# Construct: rat striatum was the source for DAT, and cerebral cortex for SERT and NET; from tissue; P2 synaptosomal fraction for uptake
# Sequence (P23977 whole entry): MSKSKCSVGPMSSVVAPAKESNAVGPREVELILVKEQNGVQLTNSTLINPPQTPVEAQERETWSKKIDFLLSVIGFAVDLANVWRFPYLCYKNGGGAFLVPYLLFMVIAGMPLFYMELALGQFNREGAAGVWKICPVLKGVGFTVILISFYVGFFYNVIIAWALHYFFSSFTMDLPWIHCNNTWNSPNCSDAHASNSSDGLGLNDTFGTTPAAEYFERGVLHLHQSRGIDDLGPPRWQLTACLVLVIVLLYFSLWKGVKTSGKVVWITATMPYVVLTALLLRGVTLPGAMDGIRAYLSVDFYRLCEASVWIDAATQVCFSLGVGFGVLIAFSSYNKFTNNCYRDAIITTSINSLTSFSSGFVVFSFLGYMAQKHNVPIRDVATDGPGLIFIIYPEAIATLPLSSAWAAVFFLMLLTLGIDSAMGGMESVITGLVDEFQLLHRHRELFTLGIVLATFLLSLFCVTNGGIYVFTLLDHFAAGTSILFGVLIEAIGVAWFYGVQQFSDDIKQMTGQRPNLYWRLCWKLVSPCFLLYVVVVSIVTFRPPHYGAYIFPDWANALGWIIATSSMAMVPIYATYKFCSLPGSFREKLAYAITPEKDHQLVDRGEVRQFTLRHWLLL
# assay-overview: Inhibition of [3H]DA uptake by DAT into rat striatal synaptosomes
# Assay type: biochemical
# condition-description: Table 3; ratio of IC50 values
Entries annotated with measured [3H]DA uptake/DAT binding
endpoint-name: [3H]DA uptake/DAT binding

>>> quantitative_readout("COc1ccc(CN[C@H]2CC[C@@H](C(c3ccccc3)c3ccccc3)OC2)cc1 (relative stereo) [Compound 16e]")
0.71
>>> quantitative_readout("N[C@H]1CC[C@@H](C(c2ccccc2)c2ccccc2)OC1 (relative stereo)")
0.32
>>> quantitative_readout("N#Cc1ccc(CN[C@H]2CC[C@@H](C(c3ccccc3)c3ccccc3)OC2)cc1 (relative stereo) [Compound 16c]")
1.1
>>> quantitative_readout("c1ccc(CN[C@H]2CC[C@@H](C(c3ccccc3)c3ccccc3)OC2)cc1 (relative stereo) [Compound 16k]")
0.79
>>> quantitative_readout("O=[N+]([O-])c1ccc(CN[C@H]2CC[C@@H](C(c3ccccc3)c3ccccc3)OC2)cc1 (relative stereo) [Compound 16d]")
2.7
>>> quantitative_readout("Fc1ccc(CN[C@H]2CC[C@@H](C(c3ccccc3)c3ccccc3)OC2)cc1 (relative stereo) [Compound 16b]")
0.96

----------
# target-entity: NET (Rattus norvegicus, UniProt Q9WTR4)
# assay-overview: Inhibition of [3H]nisoxetine binding to NET
# condition-description: read-out: IC50 for the NET
pIC50: −log10 of the molar value.
endpoint-name: pIC50

>>> quantitative_readout("c1ccc(C(c2ccccc2)C2CCC(NCc3cc4ccccc4[nH]3)CO2)cc1 (centres unmarked) [Compound 16g]")
6.40
>>> quantitative_readout("c1ccc(C(c2ccccc2)C2CCC(NCc3c[nH]c4ccccc34)CO2)cc1 (centres unmarked) [Compound 16f]")
5.73

----------
# Tested on: NET
# assay-overview: Inhibition of [3H]nisoxetine binding to NET
# Design: species or system rat
# condition-description: Table 3; selectivity ratio of IC50 values
Measured NET binding/DAT binding of individual entries
endpoint-name: NET binding/DAT binding

>>> quantitative_readout("Fc1ccc(CN[C@H]2CC[C@@H](C(c3ccccc3)c3ccccc3)OC2)cc1F (relative stereo) [Compound 16j]")
1.9
>>> quantitative_readout("Fc1ccc(CCN[C@H]2CC[C@@H](C(c3ccccc3)c3ccccc3)OC2)cc1 (relative stereo) [Compound 16p]")
40.4
>>> quantitative_readout("c1ccc(C(c2ccccc2)C2CCC(NCc3c[nH]c4ccccc34)CO2)cc1 (stereo not shown) [Compound 16f]")
2.3
>>> quantitative_readout("c1ccc(C(c2ccccc2)C2CCC(NCc3cc4ccccc4[nH]3)CO2)cc1 (stereo not shown) [Compound 16g]")
1.8

----------
# target-entity: DAT (Rattus norvegicus)
# Construct: rat striatum was the source for DAT, and cerebral cortex for SERT and NET; from tissue; P2 synaptosomal fraction for uptake
# assay-overview: Inhibition of [3H]WIN 35,428 binding to DAT
endpoint-name: activity at DAT, in words

>>> result("Fc1ccc(CN[C@H]2CCO[C@@H](C(c3ccccc3)c3ccccc3)C2)cc1 (relative stereo)")
"much weaker at DAT"
>>> result("Fc1ccc(CN[C@@H]2CCO[C@@H](C(c3ccccc3)c3ccccc3)C2)cc1 (relative stereo)")
"much weaker at DAT"
>>> result("Fc1ccc(CN[C@H]2CC[C@H](C(c3ccccc3)c3ccccc3)OC2)cc1 (relative stereo) [Compound 16a]")
"much weaker at DAT"

----------
Listed here are compounds together with their documented IC50.
# target-entity: NET (Rattus norvegicus, UniProt Q9WTR4)
# assay-overview: Inhibition of [3H]nisoxetine binding to NET
# condition-description: Table 2; average ± SEM; read-out: NET binding, IC50 [3H]nisoxetine
endpoint-name: IC50 (nM)

>>> quantitative_readout("c1ccc(C(c2ccccc2)[C@@H]2CC[C@H](NCc3ccc4[nH]ccc4c3)CO2)cc1 (relative stereo) [Compound 16n]")
56
>>> quantitative_readout("Ic1ccc(CN[C@H]2CC[C@@H](C(c3ccccc3)c3ccccc3)OC2)cc1 (relative stereo) [Compound 16m]")
234
>>> quantitative_readout("Fc1ccc(CN[C@H]2CCO[C@@H](C(c3ccccc3)c3ccccc3)C2)cc1 (relative stereo)")
5100
>>> quantitative_readout("c1ccc(CN[C@H]2CC[C@@H](C(c3ccccc3)c3ccccc3)OC2)cc1 (relative stereo) [Compound 16k]")
274
>>> quantitative_readout("Fc1ccc(CN[C@@H]2CCO[C@@H](C(c3ccccc3)c3ccccc3)C2)cc1 (relative stereo)")
17500
>>> quantitative_readout("Fc1ccc(CN[C@H]2CC[C@@H](C(c3ccccc3)c3ccccc3)OC2)cc1F (relative stereo) [Compound 16j]")
695
>>> quantitative_readout("Brc1ccc(CN[C@H]2CC[C@@H](C(c3ccccc3)c3ccccc3)OC2)cc1 (relative stereo) [Compound 16l]")
592
>>> quantitative_readout("Clc1ccc(CN[C@H]2CC[C@@H](C(c3ccccc3)c3ccccc3)OC2)cc1Cl (relative stereo) [Compound 16i]")
144
>>> quantitative_readout("Fc1ccc(CCN[C@H]2CC[C@@H](C(c3ccccc3)c3ccccc3)OC2)cc1 (relative stereo) [Compound 16p]")
5210
>>> quantitative_readout("Fc1ccc(CN[C@H]2CC[C@@H](C(c3ccccc3)c3ccccc3)OC2)cc1 (relative stereo) [Compound 16b]")
232
>>> quantitative_readout("N#Cc1ccc(CN[C@H]2CC[C@@H](C(c3ccccc3)c3ccccc3)OC2)cc1 (relative stereo) [Compound 16c]")
1580
>>> quantitative_readout("Fc1ccc(CN[C@H]2CC[C@H](C(c3ccccc3)c3ccccc3)OC2)cc1 (relative stereo) [Compound 16a]")
12700

----------
# target-entity: NET (Rattus norvegicus)
# assay-overview: Inhibition of [3H]nisoxetine binding to NET
# condition-description: read-out: Inhibition of [3H]nisoxetine binding to NET, IC50
endpoint-name: IC50 (nM)

>>> quantitative_readout("c1ccc(CN[C@H]2CC[C@@H](C(c3ccccc3)c3ccccc3)NC2)cc1 [Compound 1a, reference compound]")
612

----------
# target-entity: DAT (Rattus norvegicus, UniProt P23977)
# Construct: rat striatum was the source for DAT, and cerebral cortex for SERT and NET; from tissue; P2 synaptosomal fraction for uptake
# assay-overview: Inhibition of [3H]WIN 35,428 binding to DAT
# condition-description: Table 1; rat striatum; read-out: Inhibition of [3H]Win 35,428 binding to DAT IC50
pIC50: −log10 of the molar value.
Reported pIC50 values for a set of compounds
endpoint-name: pIC50

>>> quantitative_readout("Fc1ccc(CN[C@H]2CCO[C@@H](C(c3ccccc3)c3ccccc3)C2)cc1 (relative stereo)")
5.89
>>> quantitative_readout("Fc1ccc(CN[C@@H]2CCO[C@@H](C(c3ccccc3)c3ccccc3)C2)cc1 (relative stereo)")
5.80
>>> quantitative_readout("c1ccc(CN[C@H]2CC[C@@H](C(c3ccccc3)c3ccccc3)OC2)cc1 (relative stereo) [Compound 16k]")
6.52
>>> quantitative_readout("Fc1ccc(CN[C@H]2CC[C@H](C(c3ccccc3)c3ccccc3)OC2)cc1 (relative stereo) [Compound 16a]")
6.50

----------
# target-entity: SERT (Rattus norvegicus, UniProt P31652)
# Construct: rat striatum was the source for DAT, and cerebral cortex for SERT and NET; from tissue; host or cells: rat cerebral cortex
# Sequence (P31652 whole entry): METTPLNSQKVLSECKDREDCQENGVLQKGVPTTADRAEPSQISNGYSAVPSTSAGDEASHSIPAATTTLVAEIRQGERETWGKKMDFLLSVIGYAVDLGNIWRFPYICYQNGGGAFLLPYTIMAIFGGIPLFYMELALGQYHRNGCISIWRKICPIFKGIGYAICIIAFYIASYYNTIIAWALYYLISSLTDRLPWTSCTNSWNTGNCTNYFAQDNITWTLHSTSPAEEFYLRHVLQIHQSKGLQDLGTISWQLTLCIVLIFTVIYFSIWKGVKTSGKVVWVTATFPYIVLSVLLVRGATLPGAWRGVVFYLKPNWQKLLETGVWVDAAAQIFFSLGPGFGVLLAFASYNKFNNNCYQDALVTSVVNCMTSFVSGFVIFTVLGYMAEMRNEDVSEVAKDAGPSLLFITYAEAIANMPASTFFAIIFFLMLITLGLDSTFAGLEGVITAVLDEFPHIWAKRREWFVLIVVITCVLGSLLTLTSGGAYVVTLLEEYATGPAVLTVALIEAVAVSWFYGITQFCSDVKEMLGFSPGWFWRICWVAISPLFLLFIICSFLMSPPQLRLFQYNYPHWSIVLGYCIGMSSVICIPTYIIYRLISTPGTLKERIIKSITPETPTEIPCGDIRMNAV
# assay-overview: SERT uptake inhibition, [3H]5-HT
# Format: biochemical
# condition-description: Table 4; rat brain; read-out: SERT uptake, IC50 [3H]5-HT
pIC50: −log10 of the molar value.
In this section, each of the compounds is paired with its reported pIC50.
endpoint-name: pIC50

>>> quantitative_readout("COc1ccc(CN[C@@H]2C[C@@H](C(c3ccccc3)c3ccccc3)OC[C@@H]2O)cc1 [(−)-29g]")
5.97
>>> quantitative_readout("O[C@@H]1CO[C@@H](C(c2ccccc2)c2ccccc2)C[C@@H]1NCc1ccccc1 [(+)-29h]")
5.35
>>> quantitative_readout("O[C@@H]1C[C@@H](C(c2ccccc2)c2ccccc2)OC[C@H]1NCc1ccccc1 [(−)-29d]")
6.06
>>> quantitative_readout("COc1ccc(CN[C@H]2C[C@H](C(c3ccccc3)c3ccccc3)OC[C@H]2O)cc1 [(+)-29g]")
5.42

----------
Entries and their [3H]DA uptake/DAT binding values follow.
# target-entity: DAT (Rattus norvegicus)
# Construct: rat striatum was the source for DAT, and cerebral cortex for SERT and NET; from tissue; P2 synaptosomal fraction for uptake
# assay-overview: Inhibition of [3H]DA uptake by DAT into rat striatal synaptosomes
# Assay type: biochemical
# condition-description: Table 3; ratio of IC50 values
endpoint-name: [3H]DA uptake/DAT binding

>>> quantitative_readout("Brc1ccc(CN[C@H]2CC[C@@H](C(c3ccccc3)c3ccccc3)OC2)cc1 (relative stereo) [Compound 16l]")
1.24
>>> quantitative_readout("c1ccc(C(c2ccccc2)C2CCC(NCc3cc4ccccc4[nH]3)CO2)cc1 (stereo not shown) [Compound 16g]")
0.60
>>> quantitative_readout("Ic1ccc(CN[C@H]2CC[C@@H](C(c3ccccc3)c3ccccc3)OC2)cc1 (relative stereo) [Compound 16m]")
1.56
>>> quantitative_readout("Nc1ccc(CN[C@H]2CC[C@@H](C(c3ccccc3)c3ccccc3)OC2)cc1 (relative stereo) [Compound 16o]")
1.02
